Provenance of the data: patent US6576675B1

Give measured cytotoxicity at 2500 µM for each item. Keep answers brief.
Test system: Prostate cell lines: LnCaP, DU-145
Experiment: Viability assay (Trypan blue exclusion), prostate tumor cell lines
Type: cell-based
Details: 2.5 mM, 72 hours, read-out: % Death, tumor cell type Prostate
Experimental: The effect of the Z-styryl sulfones on normal fibroblasts and on tumor cells of breast, prostate and ovarian origin was examined utilizing the following cell lines: breast tumor cell lines: MCF-7, BT-20 and 435; prostate tumor cell lines LnCaP and DU-145; and ovarian tumor cell lines OVCAR and SKOV3. […] Cells were treated with test compound at 2.5 mM concentration and cell viability was determined after 72 hours by the Trypan blue exclusion method. […]

GET /values?readout=cytotoxicity at 2500 µM&item= O=S(=O)(/C=C\c1ccc(Br)cc1)Cc1ccccc1Cl [Example 15, Z-4-Bromostyryl 2-Chlorobenzylsulfone] 20 to 25%

Note, next up: O=S(=O)(/C=C\c1ccccc1)Cc1ccc(F)cc1 [Example 4, Z-styryl 4-Fluorobenzylsulfone] 20 to 25%

Same read-out for O=S(=O)(/C=C\c1ccc(F)cc1)Cc1ccccc1Cl [Example 11, Z-4-Fluorostyryl 2-Chlorobenzylsulfone] ? 20 to 25%

Could you do the same for O=S(=O)(/C=C\c1ccc(Cl)cc1)Cc1ccccc1Cl [Example 7, Z-4-Chlorostyryl 2-Chlorobenzylsulfone] , please? 20 to 25%

Item: O=S(=O)(/C=C\c1ccc(Cl)cc1)Cc1ccc(F)cc1 [Example 8, Z-4-Chlorostyryl 4-Fluorobenzylsulfone] > 75%

Follow-up entry: O=S(=O)(/C=C\c1ccc(F)cc1)Cc1ccccc1 [Example 9, Z-4-Fluorostyryl Benzylsulfone] 20 to 25%

What about Cc1ccc(/C=C\S(=O)(=O)Cc2ccccc2Cl)cc1 [Example 19, Z-4-Methylstyryl 2-Chlorobenzylsulfone] ? 20 to 25%

Similarly, Cc1ccc(/C=C\S(=O)(=O)Cc2ccc(Cl)cc2)cc1 [Example 18, Z-4-Methylstyryl 4-Chlorobenzylsulfone] ? 20 to 25%

Please do the same for O=S(=O)(/C=C\c1ccccc1)Cc1ccccc1 [Example 1, Z-styryl Benzylsulfone] as well. 10 to 20%

Next entry: O=S(=O)(/C=C\c1ccc(F)cc1)Cc1ccc(F)cc1 [Example 12, Z-4-Fluorostyryl 4-Fluorobenzylsulfone] 40 to 50%

O=S(=O)(/C=C\c1ccc(Cl)cc1)Cc1ccccc1 [Example 5, Z-4-Chlorostyryl Benzylsulfone] ? 20 to 25%

Can you handle Cc1ccc(/C=C\S(=O)(=O)Cc2ccccc2)cc1 [Example 17, Z-4-Methylstyryl Benzylsulfone] next? 20 to 25%

Likewise for O=S(=O)(/C=C\c1ccc(F)cc1)Cc1ccc(Cl)cc1 [Example 10, Z-4-Fluorostyryl 4-Chlorobenzylsulfone] ? 60 to 70%

* * *

Tested on: Renal cell lines: CAKI-1, CAKI-2
Experiment: Viability assay (Trypan blue exclusion), renal tumor cell lines
Type: cell-based
Conditions: 2.5 mM, 72 hours, read-out: % Death, tumor cell type Renal
I'd be grateful if you could share measured cytotoxicity at 2500 µM for these entries.

Query (compound): O=S(=O)(/C=C\c1ccc(F)cc1)Cc1ccc(F)cc1 [Example 12, Z-4-Fluorostyryl 4-Fluorobenzylsulfone] ; field requested: cytotoxicity at 2500 µM 40 to 50%

Okay, and O=S(=O)(/C=C\c1ccc(Cl)cc1)Cc1ccc(Cl)cc1 [Example 6, Z-4-Chlorostyryl 4-Chlorobenzylsulfone] ? 60 to 70%

Please do the same for O=S(=O)(/C=C\c1ccc(Br)cc1)Cc1ccccc1Cl [Example 15, Z-4-Bromostyryl 2-Chlorobenzylsulfone] as well. 20 to 25%

Also O=S(=O)(/C=C\c1ccc(Cl)cc1)Cc1ccccc1 [Example 5, Z-4-Chlorostyryl Benzylsulfone] ? 20 to 25%

Moving on to O=S(=O)(/C=C\c1ccc(F)cc1)Cc1ccc(Cl)cc1 [Example 10, Z-4-Fluorostyryl 4-Chlorobenzylsulfone] 60 to 70%

Follow-up item: O=S(=O)(/C=C\c1ccc(Br)cc1)Cc1ccc(F)cc1 [Example 16, Z-4-Bromostyryl 4-Fluorobenzylsulfone] 60 to 70%

And what about the compound O=S(=O)(/C=C\c1ccc(Br)cc1)Cc1ccc(Cl)cc1 [Example 14, Z-4-Bromostyryl 4-Chlorobenzylsulfone] ? > 75%

Could you do the same for Cc1ccc(/C=C\S(=O)(=O)Cc2ccc(Cl)cc2)cc1 [Example 18, Z-4-Methylstyryl 4-Chlorobenzylsulfone] , please? 20 to 25%

Next record, please: O=S(=O)(/C=C\c1ccc(Cl)cc1)Cc1ccccc1Cl [Example 7, Z-4-Chlorostyryl 2-Chlorobenzylsulfone] 20 to 25%

Now this one: O=S(=O)(/C=C\c1ccc(Cl)cc1)Cc1ccc(F)cc1 [Example 8, Z-4-Chlorostyryl 4-Fluorobenzylsulfone] > 75%

What about Cc1ccc(/C=C\S(=O)(=O)Cc2ccc(F)cc2)cc1 [Example 20, Z-4-Methylstyryl 4-Fluorobenzylsulfone] ? 20 to 25%

Entry to check: O=S(=O)(/C=C\c1ccc(F)cc1)Cc1ccccc1Cl [Example 11, Z-4-Fluorostyryl 2-Chlorobenzylsulfone] 20 to 25%

* * *

For each record, write down the corresponding cytotoxicity at 2500 µM.
System: Prostate cell lines: LnCaP, DU-145
Experiment: Viability assay (Trypan blue exclusion), prostate tumor cell lines
Assay type: cell-based
Settings: 2.5 mM, 72 hours, read-out: % Death, tumor cell type Prostate

Consider the compound shown here: O=S(=O)(/C=C\c1ccccc1)Cc1ccccc1Cl What is its recorded cytotoxicity at 2500 µM? 20 to 25%

Further, for O=S(=O)(/C=C\c1ccc(Br)cc1)Cc1ccc(F)cc1 ? 60 to 70%

Also O=S(=O)(/C=C\c1ccc(Cl)cc1)Cc1ccc(Cl)cc1 , if possible. 60 to 70%

Same lookup for O=S(=O)(/C=C\c1ccc(Br)cc1)Cc1ccc(Cl)cc1 , please. > 75%

Also O=S(=O)(/C=C\c1ccc(Br)cc1)Cc1ccccc1 ? 20 to 25%

Another compound to look at: O=S(=O)(/C=C\c1ccccc1)Cc1ccc(Cl)cc1 20 to 25%

Same question, Cc1ccc(/C=C\S(=O)(=O)Cc2ccc(F)cc2)cc1 this time 20 to 25%

* * *

Tested on: Breast cell lines: MCF-7, BT-20, 435
Test: Viability assay (Trypan blue exclusion), breast tumor cell lines
Format: cell-based
Settings: 2.5 mM, 72 hours, read-out: % Death, tumor cell type Breast
Kindly supply the reported cytotoxicity at 2500 µM values for the records listed here.

# lookup: cytotoxicity at 2500 µM of O=S(=O)(/C=C\c1ccc(Br)cc1)Cc1ccc(F)cc1 60 to 70%

And for O=S(=O)(/C=C\c1ccc(F)cc1)Cc1ccc(Cl)cc1 ? 60 to 70%

Quick one: Cc1ccc(/C=C\S(=O)(=O)Cc2ccccc2Cl)cc1 20 to 25%

Note, next up: O=S(=O)(/C=C\c1ccc(Cl)cc1)Cc1ccc(Cl)cc1 60 to 70%
